Sourced from patent US11661430B2

test: Assay B: Microsomal clearance
Type: in vitro ADME, human
assayConditions: pooled liver microsomes, 1 μM test compound, 37° C., NADPH
Procedure: Assay B: Microsomal Clearance: The metabolic degradation of the test compound is assayed at 37° C. with pooled liver microsomes. The final incubation volume of 100 μl per time point contains TRIS buffer pH 7.6 at RT (0.1 M), magnesium chloride (5 mM), microsomal protein (1 mg/ml) and the test compound at a final concentration of 1 μM. […] The intrinsic clearance (CL_[…]) is calculated by considering the amount of protein in the incubation: CL_[…] […]
Reported human LM [% Qh] is given for each of the following compounds.

Recorded human LM [% Qh], per entry:
> print(dat)
                                   compound  observedresult
1  NC(=O)c1csc2ncn(Cc3nnn(C[C@H](O)c4ccc5oc(F)cc5c4)n3)c(=O)c12        <23 % Qh
2  NC(=O)c1csc2ncn(Cc3nnn(C[C@H](O)c4cc5cccc(F)c5o4)n3)c(=O)c12        <23 % Qh

Q: // returns reported human LM [% Qh] for input NC(=O)c1csc2ncn(Cc3nnn(C[C@H](O)c4cc5ccccc5o4)n3)c(=O)c12
Ans: <23 % Qh

Q: // returns reported human LM [% Qh] for input NC(=O)c1csc2ncn(Cc3nnn(C[C@H](O)c4cc5cc(Cl)ccc5o4)n3)c(=O)c12
Ans: 27 % Qh

Q: // returns reported human LM [% Qh] for input NC(=O)c1csc2ncn(Cc3nnn(C[C@H](O)c4cc5cc(Cl)c(F)cc5o4)n3)c(=O)c12
Ans: 26 % Qh

Q: // returns reported human LM [% Qh] for input COc1ccc([C@@H](O)Cn2nnc(Cn3cnc4scc(C(N)=O)c4c3=O)n2)cc1
Ans: <23 % Qh

====

measurementTarget: human TRPA1 ion channel (Homo sapiens)
Sequence (O75762 whole entry): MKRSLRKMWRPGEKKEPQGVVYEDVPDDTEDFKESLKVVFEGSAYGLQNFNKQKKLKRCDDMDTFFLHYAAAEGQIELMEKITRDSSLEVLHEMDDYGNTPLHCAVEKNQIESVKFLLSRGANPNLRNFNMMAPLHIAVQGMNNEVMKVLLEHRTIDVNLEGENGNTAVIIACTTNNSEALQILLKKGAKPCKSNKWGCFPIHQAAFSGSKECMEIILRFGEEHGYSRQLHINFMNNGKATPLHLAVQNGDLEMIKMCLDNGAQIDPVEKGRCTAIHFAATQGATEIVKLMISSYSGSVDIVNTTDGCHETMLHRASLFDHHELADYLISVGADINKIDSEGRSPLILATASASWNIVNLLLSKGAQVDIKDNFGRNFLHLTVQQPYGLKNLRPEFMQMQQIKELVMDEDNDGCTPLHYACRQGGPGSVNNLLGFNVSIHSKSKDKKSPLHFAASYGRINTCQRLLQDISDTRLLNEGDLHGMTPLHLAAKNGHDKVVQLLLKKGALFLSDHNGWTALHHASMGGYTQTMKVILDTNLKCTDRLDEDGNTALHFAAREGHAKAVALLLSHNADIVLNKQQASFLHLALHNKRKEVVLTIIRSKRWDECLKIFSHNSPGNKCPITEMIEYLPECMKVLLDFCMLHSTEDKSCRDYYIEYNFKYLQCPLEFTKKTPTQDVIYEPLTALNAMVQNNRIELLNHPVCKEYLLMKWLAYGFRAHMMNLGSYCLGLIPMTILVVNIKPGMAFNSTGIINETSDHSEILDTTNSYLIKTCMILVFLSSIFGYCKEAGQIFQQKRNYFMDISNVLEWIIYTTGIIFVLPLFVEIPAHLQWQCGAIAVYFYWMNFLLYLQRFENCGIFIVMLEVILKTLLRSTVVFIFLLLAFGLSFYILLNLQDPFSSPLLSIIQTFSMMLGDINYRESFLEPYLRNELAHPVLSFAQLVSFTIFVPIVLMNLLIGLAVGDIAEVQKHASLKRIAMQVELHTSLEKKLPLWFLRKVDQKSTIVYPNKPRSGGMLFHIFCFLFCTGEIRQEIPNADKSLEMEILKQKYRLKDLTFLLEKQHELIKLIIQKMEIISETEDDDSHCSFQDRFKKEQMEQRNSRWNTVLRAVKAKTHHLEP
test: Assay A: TRPA1 assay (FLIPR, AITC-induced intracellular calcium in HEK293 cells)
assayConditions: HEK293 cells over-expressing human TRPA1, AITC 10 μM, FLIPRtetra; read-out: hTRPA1 IC50
Procedure: A human HEK293 cell line over-expressing the human TRPA1 ion channel (Perkin Elmer, Product No. AX-004-PCL) is used as a test system for compound efficacy and potency. Compound activity is determined by measuring the effect of compounds on intracellular calcium concentration induced by AITC (Allylisothiocyanat) agonism in a FLIPRtetra system (Molecular Devices). The cells are obtained as frozen cells in cryo-vials and stored until use at −150° C. […]
pIC50: −log10 of the molar value.
testReadout: pIC50

Recorded pIC50, per entry:
> print(dat)
                                   compound  observedresult
1  NC(=O)c1csc2ncn(Cc3nnn(C[C@H](O)c4ccc(Cl)s4)n3)c(=O)c12            7.51
2  NC(=O)c1csc2ncn(Cc3nnn(C[C@H](O)c4cc5cccc(F)c5o4)n3)c(=O)c12            7.39
3  COc1ccc([C@@H](O)Cn2nnc(Cn3cnc4scc(C(N)=O)c4c3=O)n2)cc1            6.88

[1] N#Cc1cc2ccc([C@@H](O)Cn3nnc(Cn4cnc5scc(C(N)=O)c5c4=O)n3)cc2o1
[2] NC(=O)c1csc2ncn(Cc3nnn(C[C@H](O)c4ccc(Cl)cc4)n3)c(=O)c12
[3] N#Cc1ccc([C@@H](O)Cn2nnc(Cn3cnc4scc(C(N)=O)c4c3=O)n2)s1
Q: Sort the compounds on pIC50; start with the lowest figure. Provide your answer as the labels ordered per the instruction.
Ans: 3, 1, 2

====

test: Assay B: Microsomal clearance
Type: in vitro ADME, human
assayConditions: pooled liver microsomes, 1 μM test compound, 37° C., NADPH
testReadout: human LM [% Qh]

> print(dat)
                                   molecule  observedresult
1  NC(=O)c1csc2ncn(Cc3nnn(C[C@H](O)c4cc(Cl)c(Cl)s4)n3)c(=O)c12 [Example 7]         34 % Qh
2  NC(=O)c1csc2ncn(Cc3nnn(C[C@H](O)c4cc5cc(F)c(Cl)cc5o4)n3)c(=O)c12 [Example 15]        <23 % Qh

Q: // returns reported human LM [% Qh] for input N#Cc1ccc([C@@H](O)Cn2nnc(Cn3cnc4scc(C(N)=O)c4c3=O)n2)s1 [Example 18]
Ans: <23 % Qh

Q: // returns reported human LM [% Qh] for input NC(=O)c1csc2ncn(Cc3nnn(C[C@H](O)c4ccc(Cl)cc4)n3)c(=O)c12 [Example 1]
Ans: <23 % Qh

Q: // returns reported human LM [% Qh] for input NC(=O)c1csc2ncn(Cc3nnn(C[C@H](O)c4ccc(Cl)s4)n3)c(=O)c12 [Example 11]
Ans: <23 % Qh

Q: // returns reported human LM [% Qh] for input NC(=O)c1csc2ncn(Cc3nnn(C[C@H](O)c4cc5ccc(F)cc5s4)n3)c(=O)c12 [Example 2]
Ans: 33 % Qh

Q: // returns reported human LM [% Qh] for input NC(=O)c1csc2ncn(Cc3nnn(C[C@H](O)c4cc5cc(F)c(F)cc5o4)n3)c(=O)c12 [Example 13]
Ans: <23 % Qh

Q: // returns reported human LM [% Qh] for input Cc1ccc([C@@H](O)Cn2nnc(Cn3cnc4scc(C(N)=O)c4c3=O)n2)cc1 [Example 10]
Ans: <23 % Qh

====

test: Assay C: Hepatocyte clearance
Format: in vitro ADME, human
assayConditions: hepatocyte suspension, 1 μM test compound, 5% species serum, six hours
testReadout: human Hepatocytes [% Qh] (% Qh)

[a] NC(=O)c1csc2ncn(Cc3nnn(C[C@H](O)c4cc5cc(Cl)c(F)cc5o4)n3)c(=O)c12 [Example 8]
[b] NC(=O)c1csc2ncn(Cc3nnn(C[C@H](O)c4ccc(Cl)s4)n3)c(=O)c12 [Example 11]
Q: Larger number for human Hepatocytes [% Qh]: a , or b ? Please indicate the selected item by its label.
Ans: a

====

test: Assay C: Hepatocyte clearance
Assay type: in vitro ADME, human
assayConditions: hepatocyte suspension, 1 μM test compound, 5% species serum, six hours
testReadout: human Hepatocytes [% Qh] (% Qh)

Recorded human Hepatocytes [% Qh], per entry:
> print(dat)
                                   compound  observedresult
1  NC(=O)c1csc2ncn(Cc3nnn(C[C@H](O)c4cc5cccc(F)c5o4)n3)c(=O)c12              14
2  COc1ccc([C@@H](O)Cn2nnc(Cn3cnc4scc(C(N)=O)c4c3=O)n2)cc1              18
3  NC(=O)c1csc2ncn(Cc3nnn(C[C@H](O)c4cc5cc(F)c(Cl)cc5o4)n3)c(=O)c12              30
4  NC(=O)c1csc2ncn(Cc3nnn(C[C@H](O)c4cc(Cl)c(Cl)s4)n3)c(=O)c12              41
5  Cc1ccc([C@@H](O)Cn2nnc(Cn3cnc4scc(C(N)=O)c4c3=O)n2)cc1               8
6  NC(=O)c1csc2ncn(Cc3nnn(C[C@H](O)c4ccc5oc(F)cc5c4)n3)c(=O)c12               6

[A] NC(=O)c1csc2ncn(Cc3nnn(C[C@H](O)c4cc5cc(Cl)ccc5o4)n3)c(=O)c12
[B] NC(=O)c1csc2ncn(Cc3nnn(C[C@H](O)c4cc5ccccc5o4)n3)c(=O)c12
Q: Just tell me: smaller human Hepatocytes [% Qh] value, A or B ? Please indicate the selected item by its label.
Ans: B

====

measurementTarget: human TRPA1 ion channel (Homo sapiens)
test: Assay A: TRPA1 assay (FLIPR, AITC-induced intracellular calcium in HEK293 cells)
assayConditions: HEK293 cells over-expressing human TRPA1, AITC 10 μM, FLIPRtetra; read-out: hTRPA1 IC50
testReadout: IC50 (nM)

> print(dat)
                                   compound  testreadout  quantityunit  observedresult
1  NC(=O)c1csc2ncn(Cc3nnn(C[C@H](O)c4cc5ccccc5o4)n3)c(=O)c12 [Example 9]         IC50            nM              29
2  Cc1ccc([C@@H](O)Cn2nnc(Cn3cnc4scc(C(N)=O)c4c3=O)n2)cc1 [Example 10]         IC50            nM              31
3  NC(=O)c1csc2ncn(Cc3nnn(C[C@H](O)c4cc5cc(Cl)c(F)cc5o4)n3)c(=O)c12 [Example 8]         IC50            nM              26

[1] NC(=O)c1csc2ncn(Cc3nnn(C[C@H](O)c4cc5cc(F)c(F)cc5o4)n3)c(=O)c12 [Example 13]
[2] NC(=O)c1csc2ncn(Cc3nnn(C[C@H](O)c4cc5cc(F)c(Cl)cc5o4)n3)c(=O)c12 [Example 15]
Q: Just tell me: smaller IC50 value, 1 or 2 ? Please indicate the selected item by its label.
Ans: 1
